test system: HS 578T breast; experiment: NCI-60 one-dose screen, 48 h; conditions: 10 µM
This is part of a sample that, as a whole, favours compounds with a hit. Of some 83,000 tested, about 20% had one in any assay. Calls of active or inactive are those of the source. How the source made its calls: active means growth percent below 10; inactive means the rest.
Outcome codes: t (active), f (inactive)

compound | classification
Cc1ccc2nc(CN(CCN(Cc3nc4ccc(C)cc4[nH]3)Cc3nc4ccc(C)cc4[nH]3)Cc3nc4ccc(C)cc4[nH]3)[nH]c2c1 | t
CCN(CC)Cc1cc(Nc2ccnc3cc(Cl)ccc23)cc(-c2ccc(Cl)cc2)c1O | t
C#CC[C@@H]1C[C@]2(C)[C@H]3CC[C@@H]4[C@H]5C(C(=C)C)CC[C@]5(C(=O)NCCCCN)CC[C@@]4(C)[C@]3(C)CC[C@H]2C(C)(C)[C@H]1OC(C)=O (stereo partly specified) | t
COc1cc(C)c2c(=O)c3c(oc2c1)C(=O)c1c(O)c(OC)cc(O)c1C3=O | f
C/C(=C\C(=N\N=C(N)N)c1ccc(Cl)cc1)c1ccc(Cl)cc1 | t
COc1cccc(NC(=O)[C@H](C(C)C)n2c(=O)[nH]c3ccccc3c2=O)c1 | f
COc1ccc(/C=C2\CCCC3=C2N=C2SC(C)=NN2C3c2ccc(OC)c(OC)c2)cc1OC (stereo unspecified) | f
COc1ccc(/C(=C\c2ccc3c(c2)OCO3)C(=O)Nc2nc3ccc(F)cc3s2)cc1OC | f
Clc1ccc(Nc2ncnc3c2sc2ncccc23)cc1 | f
CN(C)c1ccc(N2Cc3ccccc3OC3=C2C(=O)c2c(O)ccc(O)c2C3=O)cn1 | f
CN1CCN(Cc2ccc(NC(=O)c3cncc(C#Cc4cnc5cccnn45)c3)cc2C(F)(F)F)CC1 | t
COc1ccc(Nc2ncnc3c2sc2nc(C)cc(C)c23)cc1 | f
CCCCCCCCCCCCCCCC1=NCC[N+]1(CCO)CCO | f
Cc1cc(C)cc(Nc2cc(C)nc3nc(C(F)(F)F)nn23)c1 | f
COC(=O)C(C)NC1=C(Cl)C(=O)C(NC(C)C(=O)OC)=C(Cl)C1=O (stereo unspecified) | f
CCOC(=O)c1c(NC(=O)c2ccccc2)sc2c(O)c(CN(CC)CC)ccc12 | f
Cc1cc(O)c(C2=NN(c3ccc(S(N)(=O)=O)cc3)C(c3ccc(Cl)cc3)C2)c(C)c1Cl (stereo unspecified) | f
COc1cc(/C=C2\C(=O)Nc3ccc(N(C)C)cc32)cc(OC)c1OC | t
O=C(C(=O)c1cccnc1)c1cccnc1 | f
COc1ccc(/C(=C\c2cc(OC)c(OC)c(OC)c2)C(=O)N2CCNCC2)cc1 | f
COc1cc2nccc(Oc3ccc(NC(=O)C4(C(=O)Nc5c(F)cc(F)cc5F)CC4)cc3)c2cc1Oc1ccc(N)cn1 | f
CCN(CC)Cc1cc(Nc2nc(NC3CCC(N(C)C)CC3)c3ccccc3n2)ccc1OC (stereo unspecified) | f
CC(=O)N[C@@H](CCC(N)=O)C(=O)O | f
CC1(C)C2CCC(O)(C(=O)O)C1C2 (stereo unspecified) | f
O=C1c2ccccc2C(=O)c2c1oc1ccc3ccccc3c21 | f
O=C(Nc1ccc(Oc2ccc(Nc3nc4ccccc4s3)cc2)cc1)Nc1ccc(Cl)c(C(F)(F)F)c1 | t
COc1cc2c(cc1I)-c1c(cc(OC)c(OC)c1OC)CC[C@@H]2NC(C)=O | t
CC1=C(C(=O)Nc2ccc(F)cc2)C(c2ccc(C)cc2)C2=C(CC(C)(C)CC2=O)N1 (stereo unspecified) | f
CCc1ccc2c(c1)N(CCO)C1=C(C(=O)OC1)C2c1cccc(Br)c1 (stereo unspecified) | t
Cc1cc(C)c2c(n1)sc1c(Nc3ccc(Cl)cc3Cl)ncnc12 | f
COc1ccc(C2=CC(c3ccc(OC)cc3Br)N3C=CSC3=N2)cc1 (stereo unspecified) | f
Cc1ccc(C2CC(c3cccs3)=NN2c2ccc(S(N)(=O)=O)cc2)s1 (stereo unspecified) | f
C=CCn1c(SCC(=O)Nc2ccc(C(=O)/C=C/c3ccc(Cl)cc3)cc2)nnc1-c1ccc(Cl)cc1 | f
CCCc1cc2c(cc1CN(Cc1cc3c(cc1CCC)OCO3)C(=N)OCC)OCO2 | f
c1ccc(C(Nc2ccccn2)(c2ccccc2)c2ccccc2)cc1 | f
Cc1ccc(O)c(Cc2ccccc2)c1 | f
COCCn1c(Nc2ccc(C(=O)NO)cc2)nc2ccccc21 | f
COc1ccc(Nc2ncccc2C(=O)NCc2cn(Cc3cc(OC)cc(OC)c3)nn2)cc1 | f
O=S(=O)(NCC[C@@H]1C[C@H]1c1ccc2ccccc2c1)c1ccc(C(F)(F)F)cc1 | f
CO[C@@]12[C@@H]3NC3CN1C1=C(C(=O)C(N)=C(C)C1=O)[C@@H]2COC(N)=O (stereo partly specified) | f
COc1cc2c(cc1OC)C(=O)C(Br)CC2 (stereo unspecified) | f

====

# growth per record follows
Tested on: HT29 colon
Assay: NCI-60 one-dose screen, 48 h (100 = growth as untreated, 0 = no growth, -100 = all killed)
Conditions: 10 µM unless noted
Method: Growth inhibition of the HT29 human tumor cell line is measured as a screen for anti-cancer activity. Cells are grown in 96 well plates and exposed to the test compound for 48 hours. Compounds are tested at a single concentration, which is 10^-5 M for most compounds. The reported endpoint is percent growth (GI% or GIPRCNT), where numbers from 0 - 100% represent growth inhibition, and numbers from -100% - 0 represent cell death. For example, a value of 40 represents 60% growth inhibition. […]
Compounds without any hit were thinned out: in the full panel of roughly 83,000, 20% have a hit.
assay.endpoint: growth (%)

compound | reading
NCCCOc1cc2ccccc2cc1C(=O)NCCCOc1cc2ccccc2cc1C(=O)Nc1ccc(Cl)cc1O | -90.7
CC1CN(CCCOC(=O)Nc2ccc(Cl)cc2)CCN1C(C)(C)C (stereo not given) | 104
COc1ccc2c(c1)CCCC21C(=O)Nc2c(Cl)cccc21 (stereo not given) | 21.1
N#CC1=C(N)Oc2nc[nH]c(=O)c2C1c1cccs1 (stereo not given) | 99
Nc1nc(N)c2c(n1)NC(c1sc(Cl)nc1Cl)CC(c1ccc3c(c1)OCO3)=N2 (stereo not given) | 5.28
CN1CCN(Cc2ccc(NC(=O)c3cncc(C#Cc4ncc5cnccn45)c3)cc2C(F)(F)F)CC1 | 27.4
C#CCNC(=S)N/N=C(\C)c1ccccn1 | 31.5
CC(C)NCCCCCNc1cc(O)cc2cccnc12 | 54.2
COc1cc(NC(C)CCCN)c2ncccc2c1Oc1ccc(Cl)cc1 (stereo not given) | 34.5
COc1ccc(-c2nn(-c3cccc(Cl)c3)cc2/C=C2\C(=N)N(c3ccccc3)N=C2N)cc1 | 57.4

====

tested on: NCI-H226 lung; assay: NCI-60 one-dose screen, 48 h (100 = growth as untreated, 0 = no growth, -100 = all killed); conditions: 10 µM unless noted
This is part of a sample that, as a whole, favours compounds with a hit. Of some 83,000 tested, about 20% had one in any assay.
growth reference
assay.endpoint: growth (%)

compound | scale.unit | reading
Clc1ccc(Nc2ncnc3c2sc2ncccc23)cc1 | % | 31.5
CCSc1ccc([C@@H]2[C@@H](O)C(=O)N2c2cc(OC)c(OC)c(OC)c2)cc1 | % | 50.7
COc1ccc(/C=c2\c(=O)n(-c3ccccc3)c3nn4c(n23)=NNC42CCCCC2)cc1 | % | 75.8
CCN(CC)Cc1cc(Nc2ccnc3cc(Cl)ccc23)cc(-c2ccc(Cl)cc2)c1O | % | 17.6
Cc1cc(C)cc(NC(=O)Cn2nncc2CN2C(=O)CSC2=O)c1 | % | 104
COc1ccc(/C=C2\N=C(c3cccnc3)N(c3ccccc3)NC2=O)cc1 | % | 86.8
COc1cc(-c2csc(NC(=O)Nc3cccc(C(F)(F)F)c3)n2)cc(OC)c1OC | % | 55.6
C=C(C)[C@@H]1CC[C@]2(C)[C@H](CC=C3[C@@H]4C[C@](C)(C(=O)N5CCN(C)CC5)CC[C@]4(C)CC[C@]32C)[C@@]1(C)CCC#N | % | 69.6
N#Cc1c(NN)n(C2OC(CO)C(O)C2O)c2ncnc(N)c12 (centres undefined) | % | 25.7

====

Reported values of growth for individual entries
tested on: UACC-257 melanoma; test: NCI-60 one-dose screen, 48 h (100 = growth as untreated, 0 = no growth, -100 = all killed); conditions: 10 µM unless noted
This is part of a sample that, as a whole, favours compounds with a hit. Of some 83,000 tested, about 20% had one in any assay.

compound | growth [%]
O=C(/C=C/c1cn(-c2ccccc2)nc1-c1cccc(Nc2ccnc3cc(Cl)ccc23)c1)c1ccc2c(c1)OCO2 | 95
CC(C)N=C1CCCC1C(=S)SSC(=S)C1CCCC1=NC(C)C (stereo not given) | 69.7
Oc1[nH]c2ccc(Cl)cc2c1/C=c1/ccc2c(c1)N=C(c1ccc(F)cc1)N=2 | 70.1
CCOC(=O)c1sc2nc(-c3cc4ccccc4o3)cc(-c3ccc(Cl)cc3)c2c1N | 114
COc1ccc([C@@H]2[C@@H](Cl)C(=O)N2c2cc(OC)c(OC)c(OC)c2)cc1C | 80.7
